# System under test: cytoplasmic domain of the human VEGF receptor (VEGFR-2) (Homo sapiens, UniProt P35968)
# Construct: The cytoplasmic domain of the human VEGF receptor (VEGFR-2) was expressed as a Histidine-tagged fusion protein; Histidine tag
# Sequence (P35968 786-1356): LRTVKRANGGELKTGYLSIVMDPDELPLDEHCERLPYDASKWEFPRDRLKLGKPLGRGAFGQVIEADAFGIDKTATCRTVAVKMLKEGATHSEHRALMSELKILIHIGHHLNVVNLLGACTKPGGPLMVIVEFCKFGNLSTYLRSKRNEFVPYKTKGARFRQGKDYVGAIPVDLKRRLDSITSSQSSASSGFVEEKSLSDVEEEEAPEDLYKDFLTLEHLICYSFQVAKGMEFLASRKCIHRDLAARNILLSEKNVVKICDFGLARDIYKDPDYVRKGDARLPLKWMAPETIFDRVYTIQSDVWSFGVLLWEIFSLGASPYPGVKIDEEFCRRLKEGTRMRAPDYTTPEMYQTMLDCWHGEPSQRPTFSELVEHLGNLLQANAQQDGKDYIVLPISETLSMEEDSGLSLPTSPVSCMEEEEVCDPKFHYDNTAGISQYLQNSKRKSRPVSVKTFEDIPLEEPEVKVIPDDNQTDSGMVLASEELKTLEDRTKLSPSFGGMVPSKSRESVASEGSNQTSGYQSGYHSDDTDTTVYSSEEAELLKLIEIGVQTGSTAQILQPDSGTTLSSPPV
# Test description: KDR Assay
# Type: biochemical
# Condition summary: His-VEGFR-2; 3.6 μM ATP
Here the recorded pIC50 is given for each entry.
On this scale, pIC50 is minus log10 of a concentration expressed in M (mol/L).

Consider the following illustrative entries.
Compound	pIC50
CSc1ccc(NC=C2C(=O)Nc3ccc(F)cc32)cc1	6.37
CCN(CC)CCCOc1ccc(NC=C2C(=O)Nc3cccc(C)c32)cc1	7.15
CCN(CC)CCCCOc1ccc(NC=C2C(=O)Nc3ccccc32)cc1	6.62
O=C1Nc2ccccc2C1=CNc1ccc(OCCCN2CCC(F)C2)cc1 (stereo not drawn)	6.51

Alright, here's another compound for you.
Item: `O=C1Nc2cc(F)ccc2C1=CNc1ccc(CN2CCOCC2)cc1` | pIC50: 6.74
